- TGT: T1, interleukin-23 receptor (IL-23R), Q5VWK5
- T1 chain: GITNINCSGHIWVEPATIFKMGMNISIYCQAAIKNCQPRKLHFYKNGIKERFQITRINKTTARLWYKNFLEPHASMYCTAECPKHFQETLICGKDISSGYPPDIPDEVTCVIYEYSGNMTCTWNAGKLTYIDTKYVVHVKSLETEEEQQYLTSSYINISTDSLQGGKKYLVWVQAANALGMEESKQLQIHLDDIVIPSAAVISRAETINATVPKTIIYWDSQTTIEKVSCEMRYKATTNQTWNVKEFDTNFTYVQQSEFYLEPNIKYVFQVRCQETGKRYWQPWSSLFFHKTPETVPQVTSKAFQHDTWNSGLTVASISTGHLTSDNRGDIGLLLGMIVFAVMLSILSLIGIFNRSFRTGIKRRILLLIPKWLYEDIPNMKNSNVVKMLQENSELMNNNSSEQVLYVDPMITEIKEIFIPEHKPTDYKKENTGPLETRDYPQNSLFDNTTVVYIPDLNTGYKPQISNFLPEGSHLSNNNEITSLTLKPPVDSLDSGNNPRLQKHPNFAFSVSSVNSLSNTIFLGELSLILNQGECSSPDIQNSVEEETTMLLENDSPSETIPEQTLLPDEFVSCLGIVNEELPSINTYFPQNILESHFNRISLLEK
- RUN DESCRIPTION: cell-based or functional assay
Non-standard residues stand in square brackets, D forms with d. No end group written: not given here. Trp(7-Me) = Cc1cccc2c(C[C@H](N)C(=O)O)c[nH]c12; 3Pal = N[C@@H](Cc1cccnc1)C(=O)O; Pen = CC(C)(S)[C@H](N)C(=O)O; Thp = NC1(C(=O)O)CCOCC1; Sar = CNCC(=O)O
METRIC NAME: PBMC pSTAT3 IC50

Quick one: PBMC pSTAT3 IC50 for K[Pen]NT[Trp(7-Me)]K(Ac)[Pen][2‑amino‑3‑(4-(2-aminoethoxy)phenyl)propanoic acid][2‑amino‑3‑(6-hydroxynaphthalen-2-yl)propanoic acid][Thp]K(Ac)N[3Pal][Sar] (not fully specified (residue 1, bridges); ends and bridges not checked; also: Lys1 lipidated (lipid not given here)) [SEQ ID NO: 427] ? < 1 nM
